study_system: Ba/F3 cells transformed with human Tel-TrkA (Homo sapiens, UniProt P04629)
Construct: the other entry of the earlier key: ETV6 (P41212, Transcription factor ETV6)
Sequence (P04629 510-796 limits assumed): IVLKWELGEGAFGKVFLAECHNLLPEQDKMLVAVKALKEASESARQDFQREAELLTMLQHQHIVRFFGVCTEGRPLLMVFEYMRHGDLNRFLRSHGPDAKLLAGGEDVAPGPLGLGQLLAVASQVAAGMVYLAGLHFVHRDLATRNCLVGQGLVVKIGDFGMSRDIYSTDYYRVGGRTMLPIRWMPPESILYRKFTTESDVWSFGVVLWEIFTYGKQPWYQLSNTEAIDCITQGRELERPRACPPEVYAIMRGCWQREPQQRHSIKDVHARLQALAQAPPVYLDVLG
experiment_summary: Ba/F3 cell proliferation, Ba/F3 Tel-TrkA
run_parameters: inhibition of proliferation, 48 hours, Bright-Glo luminescence; read-out: Ba/F3Tel-TrkA
readout_type: IC50 (µM)

compound=N#C[C@H]1C[C@H](c2cccc(F)c2)N(c2ccn3ncc(C(N)=O)c3c2)C1 readout_type=IC50 numeric_readout=0.125
compound=NC(=O)c1cc(F)cc([C@H]2CC(F)(F)CN2c2ccn3ncc(C(N)=O)c3c2)c1 readout_type=IC50 numeric_readout=0.037
compound=O=C(NCCO)c1cnn2ccc(N3C[C@@H](F)C[C@@H]3c3cccc(F)c3)cc12 readout_type=IC50 numeric_readout=0.009
compound="NC(=O)c1cnn2ccc(N3CCCCC3c3cccc(F)c3)cc12 (stereo not shown)" readout_type=IC50 numeric_readout=0.225
compound=O=C(O)c1cnn2ccc(N3CC(F)(F)C[C@@H]3c3cccc(F)c3)cc12 readout_type=IC50 numeric_readout=1.68
compound=NC(=O)c1cnn2ccc(N3C[C@@H](C(N)=O)C[C@@H]3c3cccc(F)c3)cc12 readout_type=IC50 numeric_readout=0.443
compound=CCOC(=O)c1cnn2ccc(N3CC(F)(F)C[C@@H]3c3cccc(F)c3)cc12 readout_type=IC50 numeric_readout=0.003
compound=NC(=O)c1cnn2ccc(N3CC(F)(F)C[C@@H]3c3cccc(F)c3)cc12 readout_type=IC50 numeric_readout=0.024

1. N#Cc1cc(F)cc([C@H]2C[C@H](F)CN2c2ccn3ncc(C(N)=O)c3c2)c1
2. CCOC(=O)c1cnn2ccc(N3CC(F)(F)C[C@@H]3c3cc(F)cc(C#N)c3)cc12
3. NC(=O)c1cnn2ccc(N3C[C@H](O)C[C@@H]3c3cccc(F)c3)cc12
4. CCOC(=O)c1cnn2ccc(N3C[C@@H](C(N)=O)C[C@@H]3c3cccc(F)c3)cc12
Request: Sequence the entries by IC50, beginning with the highest number. The labels, placed in the requested order, form the answer.
Result: 3, 2, 1, 4
(3: 0.395 µM, 2: 0.017 µM, 1: 0.005 µM, 4: 0.002 µM)

P. CCOC(=O)c1cnn2ccc(N3C[C@@H](C#N)C[C@@H]3c3cccc(F)c3)cc12
Q. CN(C)C(=O)c1cnn2ccc(N3C[C@@H](F)C[C@@H]3c3cccc(F)c3)cc12
R. O=C(Nc1ccccc1)c1cnn2ccc(N3C[C@@H](F)C[C@@H]3c3cccc(F)c3)cc12
S. Cc1ccc(C)c(C2CCCN2c2ccn3ncc(C(N)=O)c3c2)c1 (stereo not shown)
T. NC(=O)Nc1cnn2ccc(N3C[C@@H](F)C[C@@H]3c3cccc(F)c3)cc12
Request: Arrange the 5 compounds by rising IC50, starting with the smallest. The labels, placed in the requested order, form the answer.
Result: P, R, Q, T, S
